Cited source for all entries: patent US4272437A

# System: Proteus vulgaris A21559
# TEST DESCRIPTION: MIC, tube dilution, Proteus vulgaris A21559
# Format: cell-based
# CONDITION DESCRIPTION: Proteus vulgaris, A21559, read-out: Minimum Inhibitory Concentration (M.I.C.)

{"MOLECULE": "CC1=C(C(=O)O)N2C(=O)[C@H]([C@H](O)Cc3ccccc3)[C@H]2S1 (relative stereo)", "MIC": "> 125 µg/mL"}
{"MOLECULE": "CC(N)C1=C(C(=O)O)N2C(=O)CC2S1 (centres unmarked)", "MIC": "125 µg/mL"}
{"MOLECULE": "CC[C@@H](O)[C@H]1C(=O)N2C(C(=O)O)=C(C)S[C@H]12 (relative stereo)", "MIC": "> 125 µg/mL"}
{"MOLECULE": "CC[C@H](O)[C@H]1C(=O)N2C(C(=O)O)=C(C)S[C@H]12 (relative stereo)", "MIC": "> 125 µg/mL"}
{"MOLECULE": "CC1=C(C(=O)O)N2C(=O)[C@H]([C@H](C)O)[C@H]2S1 (relative stereo)", "MIC": "> 125 µg/mL"}

---

Record set of MIC for target or system Ser. marcescens A-20019.

{"COMPOUND": "COC1=C(C(=O)[O-])N2C(=O)C[C@H]2S1.[Na+] [Preparation 17, Sodium 2-Methoxypenem-3-carboxylate]", "RESULT QUALIFIER": ">", "MIC / µg/mL": 63}
{"COMPOUND": "NCC1=C(C(=O)O)N2C(=O)CC2S1 (stereo not drawn)", "RESULT QUALIFIER": "=", "MIC / µg/mL": 8}
{"COMPOUND": "NCCCC1=C(C(=O)O)N2C(=O)CC2S1 (stereo not drawn) [Example 22, Sodium 2-Aminopropylpenem-3-carboxylate]", "RESULT QUALIFIER": "=", "MIC / µg/mL": 32}
{"COMPOUND": "CC1=C(C(=O)O)N2C(=O)[C@@H](CO)[C@H]2S1 (relative stereo)", "RESULT QUALIFIER": "=", "MIC / µg/mL": 63}
{"COMPOUND": "NCC1CC1C1=C(C(=O)O)N2C(=O)CC2S1 (stereo not drawn)", "RESULT QUALIFIER": "=", "MIC / µg/mL": 8}
{"COMPOUND": "C[C@@H](O)[C@H]1C(=O)N2C(C(=O)O)=C(CCCCN)S[C@H]12 (relative stereo)", "RESULT QUALIFIER": "=", "MIC / µg/mL": 4}

---

Record set of MIC for target or system Str. pyogenes A-9604.

{"MOLECULE": "CC(C)OP(=O)(CCC1=C(C(=O)O)N2C(=O)CC2S1)OC(C)C (centres unmarked)", "TEST SYSTEM": "Str. pyogenes A-9604", "RESULT QUALIFIER": "=", "MIC [µg/mL]": 125}
{"MOLECULE": "O=C(O)C1=C(C(F)(F)F)SC2CC(=O)N12 (centres unmarked)", "TEST SYSTEM": "Str. pyogenes A-9604", "RESULT QUALIFIER": ">", "MIC [µg/mL]": 8}
{"MOLECULE": "CC(C)(C)CC1=C(C(=O)O)N2C(=O)CC2S1 (centres unmarked)", "TEST SYSTEM": "Str. pyogenes A-9604", "RESULT QUALIFIER": "=", "MIC [µg/mL]": 0.25}
{"MOLECULE": "CC1=C(C(=O)O)N2C(=O)C(C(O)c3ccccc3)C2S1 (centres unmarked)", "TEST SYSTEM": "Str. pyogenes A-9604", "RESULT QUALIFIER": "=", "MIC [µg/mL]": 4}
{"MOLECULE": "NCC(=O)OCC1=C(C(=O)O)N2C(=O)CC2S1 (centres unmarked)", "TEST SYSTEM": "Str. pyogenes A-9604", "RESULT QUALIFIER": "=", "MIC [µg/mL]": 16}
